system: Mycobacterium kansasii; assay: Antimycobacterial activity against Mycobacterium kansasii My 235/80 after 14 days; assay type: functional; conditions: My 235/80, 336 h
Reported log10(MIC) values follow for various compounds
Experimental endpoint: log10(MIC) (log10 of the value in µM)

- Compound: "CCOP(=O)(OCC)Oc1cc(Cl)ccc1C(=O)Nc1ccc(C(F)(F)F)cc1"
  Tested on: "Mycobacterium kansasii"
  log10(MIC): 0.00
- Compound: "CCOP(=O)(OCC)Oc1cc(Cl)ccc1C(=O)Nc1cccc(F)c1"
  Tested on: "Mycobacterium kansasii"
  log10(MIC): 1.20
- Compound: "CCOP(=O)(OCC)Oc1ccc(Br)cc1C(=O)Nc1ccc(C(F)(F)F)cc1"
  Tested on: "Mycobacterium kansasii"
  log10(MIC): 0.30
- Compound: "CCOP(=O)(OCC)Oc1ccc(Br)cc1C(=O)Nc1ccc(F)cc1"
  Tested on: "Mycobacterium kansasii"
  log10(MIC): 1.20
- Compound: "CCOP(=O)(OCC)Oc1ccc(Cl)cc1C(=O)Nc1ccc(F)cc1"
  Tested on: "Mycobacterium kansasii"
  log10(MIC): 1.51
- Compound: "CCOP(=O)(OCC)Oc1ccc(Br)cc1C(=O)Nc1ccc(Cl)c(Cl)c1"
  Tested on: "Mycobacterium kansasii"
  log10(MIC): 0.60
- Compound: "CCOP(=O)(OCC)Oc1ccc(Cl)cc1C(=O)Nc1ccc(C(F)(F)F)cc1"
  Tested on: "Mycobacterium kansasii"
  log10(MIC): 0.30
- Compound: "CCOP(=O)(OCC)Oc1cc(Cl)ccc1C(=O)Nc1cccc(C(F)(F)F)c1"
  Tested on: "Mycobacterium kansasii"
  log10(MIC): 0.60
- Compound: "CCOP(=O)(OCC)Oc1ccc(Cl)cc1C(=O)Nc1cccc(Cl)c1"
  Tested on: "Mycobacterium kansasii"
  log10(MIC): 0.90
- Compound: "CCOP(=O)(OCC)Oc1cc(Cl)ccc1C(=O)Nc1ccc(F)cc1"
  Tested on: "Mycobacterium kansasii"
  log10(MIC): 1.20
- Compound: "CCOP(=O)(OCC)Oc1cc(Cl)ccc1C(=O)Nc1ccc(Cl)c(Cl)c1"
  Tested on: "Mycobacterium kansasii"
  log10(MIC): 0.60
- Compound: "CCOP(=O)(OCC)Oc1ccc(Cl)cc1C(=O)Nc1cccc(Br)c1"
  Tested on: "Mycobacterium kansasii"
  log10(MIC): 0.90
- Compound: "CCOP(=O)(OCC)Oc1cc(Cl)ccc1C(=O)Nc1cccc(Cl)c1"
  Tested on: "Mycobacterium kansasii"
  log10(MIC): 0.90
- Compound: "Nc1ccc(C(=O)O)c(O)c1 [AMINOSALICYLIC ACID]"
  Tested on: "Mycobacterium kansasii"
  log10(MIC): 3.00
- Compound: "CCOP(=O)(OCC)Oc1ccc(Cl)cc1C(=O)Nc1cccc(C(F)(F)F)c1"
  Tested on: "Mycobacterium kansasii"
  log10(MIC): 0.90
- Compound: "CCOP(=O)(OCC)Oc1ccc(Br)cc1C(=O)Nc1cccc(Cl)c1"
  Tested on: "Mycobacterium kansasii"
  log10(MIC): 0.90
- Compound: "CCOP(=O)(OCC)Oc1ccc(Cl)cc1C(=O)Nc1cccc(F)c1"
  Tested on: "Mycobacterium kansasii"
  log10(MIC): 1.51
- Compound: "CCOP(=O)(OCC)Oc1ccc(Br)cc1C(=O)Nc1cccc(C(F)(F)F)c1"
  Tested on: "Mycobacterium kansasii"
  log10(MIC): 0.60
- Compound: "CCOP(=O)(OCC)Oc1ccc(Cl)cc1C(=O)Nc1ccc(Br)cc1"
  Tested on: "Mycobacterium kansasii"
  log10(MIC): 0.90
- Compound: "CCOP(=O)(OCC)Oc1ccc(Br)cc1C(=O)Nc1ccc(Br)cc1"
  Tested on: "Mycobacterium kansasii"
  log10(MIC): 0.60
- Compound: "CCOP(=O)(OCC)Oc1ccc(Br)cc1C(=O)Nc1cccc(Br)c1"
  Tested on: "Mycobacterium kansasii"
  log10(MIC): 0.90
